# testedSystem: human PAI-1 (human, UniProt P05121 24-402)
# Sequence (P05121 24-402 limits assumed): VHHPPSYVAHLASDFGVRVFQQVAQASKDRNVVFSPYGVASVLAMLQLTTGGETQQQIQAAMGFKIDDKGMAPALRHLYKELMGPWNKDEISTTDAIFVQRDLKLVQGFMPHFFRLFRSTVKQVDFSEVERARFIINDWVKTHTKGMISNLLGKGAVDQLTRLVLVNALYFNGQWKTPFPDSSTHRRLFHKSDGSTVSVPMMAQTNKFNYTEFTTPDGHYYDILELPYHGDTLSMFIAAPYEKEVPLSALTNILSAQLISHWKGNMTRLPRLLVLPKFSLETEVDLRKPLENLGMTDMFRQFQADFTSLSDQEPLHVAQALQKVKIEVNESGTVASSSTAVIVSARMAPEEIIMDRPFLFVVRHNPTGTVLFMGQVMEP
# assayRemarks: cell-based or functional assay
List of active PAI-1 by uPA-PAI-1 complex ELISA, hPlasma TH1782, Y50% values.
measurementType: active PAI-1 by uPA-PAI-1 complex ELISA, hPlasma TH1782, Y50% (%)

| binder | valueMeasured |
| --- | --- |
| A44-hv13 (antibody, V domains shown, humanized A44, HEK293; constant regions as for A44-hv1; also called LC2 x HC5b; variant 13) VH: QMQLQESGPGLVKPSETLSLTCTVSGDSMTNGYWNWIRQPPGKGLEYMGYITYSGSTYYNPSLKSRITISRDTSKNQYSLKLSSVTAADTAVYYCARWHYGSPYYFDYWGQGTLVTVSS VL: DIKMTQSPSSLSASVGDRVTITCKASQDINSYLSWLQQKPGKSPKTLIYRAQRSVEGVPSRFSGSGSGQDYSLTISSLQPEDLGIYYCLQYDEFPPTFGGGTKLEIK | 61.4 |
| A44-hv12 (antibody, V domains shown, humanized A44, HEK293; constant regions as for A44-hv1; also called LC4 x HC3; variant 12) VH: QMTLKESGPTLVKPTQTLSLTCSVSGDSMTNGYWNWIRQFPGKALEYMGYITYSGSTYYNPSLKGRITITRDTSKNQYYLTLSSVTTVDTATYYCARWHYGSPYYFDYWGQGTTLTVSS VL: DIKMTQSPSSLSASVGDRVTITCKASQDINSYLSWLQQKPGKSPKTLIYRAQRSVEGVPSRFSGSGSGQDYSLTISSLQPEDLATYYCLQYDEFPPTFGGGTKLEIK | 37.7 |
| A44-hv14 (antibody, V domains shown, humanized A44, HEK293; constant regions as for A44-hv1; also called LC4 x HC5b; variant 14) VH: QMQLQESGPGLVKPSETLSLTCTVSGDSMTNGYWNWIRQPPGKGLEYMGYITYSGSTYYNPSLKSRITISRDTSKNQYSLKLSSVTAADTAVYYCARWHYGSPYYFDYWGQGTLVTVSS VL: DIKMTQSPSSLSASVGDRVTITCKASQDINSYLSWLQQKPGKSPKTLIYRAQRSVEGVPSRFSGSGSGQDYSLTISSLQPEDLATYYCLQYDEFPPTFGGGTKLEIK | 73.9 |
| A44-hv11 (antibody, V domains shown, humanized A44, HEK293; compared with a human IgG1 isotype control; constant regions as for A44-hv1; also called A44V11; A44v11) VH: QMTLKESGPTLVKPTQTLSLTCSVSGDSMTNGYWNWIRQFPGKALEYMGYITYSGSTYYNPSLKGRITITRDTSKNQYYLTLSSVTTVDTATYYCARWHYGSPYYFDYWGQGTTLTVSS VL: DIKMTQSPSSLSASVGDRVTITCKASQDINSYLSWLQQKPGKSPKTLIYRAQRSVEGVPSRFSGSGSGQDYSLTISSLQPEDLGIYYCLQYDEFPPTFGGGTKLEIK | 37.5 |
